AC50 for assorted compounds
Molecular target: Gamma-aminobutyric acid receptor subunit alpha-1 (Rattus norvegicus, UniProt P62813); further: assay procedure not described here
Sequence (P62813 whole entry): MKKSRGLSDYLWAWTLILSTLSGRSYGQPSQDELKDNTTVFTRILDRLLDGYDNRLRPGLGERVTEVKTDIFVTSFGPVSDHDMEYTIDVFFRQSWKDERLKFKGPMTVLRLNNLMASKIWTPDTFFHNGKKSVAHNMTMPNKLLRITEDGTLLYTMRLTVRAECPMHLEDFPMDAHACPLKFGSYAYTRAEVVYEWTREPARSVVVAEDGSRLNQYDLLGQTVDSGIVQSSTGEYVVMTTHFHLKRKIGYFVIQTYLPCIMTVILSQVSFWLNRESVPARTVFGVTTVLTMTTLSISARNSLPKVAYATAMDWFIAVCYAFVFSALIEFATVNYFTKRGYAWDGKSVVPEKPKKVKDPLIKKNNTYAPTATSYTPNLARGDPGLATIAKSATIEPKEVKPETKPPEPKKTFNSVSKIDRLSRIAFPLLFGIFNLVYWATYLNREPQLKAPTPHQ
Assay type: functional

Ask: Please report the measured AC50 for COCC1=C(C(=O)OC(C)OC(=O)OC(C)C)N2C(=O)[C@@H](NC(=O)/C(=N\OC)c3csc(N)n3)[C@H]2SC1 (stereo partly specified)
Result: > 30 µM

* * *

Quick record of AC50 values for UniProtKB P37288.
Sequence (P37288 whole entry): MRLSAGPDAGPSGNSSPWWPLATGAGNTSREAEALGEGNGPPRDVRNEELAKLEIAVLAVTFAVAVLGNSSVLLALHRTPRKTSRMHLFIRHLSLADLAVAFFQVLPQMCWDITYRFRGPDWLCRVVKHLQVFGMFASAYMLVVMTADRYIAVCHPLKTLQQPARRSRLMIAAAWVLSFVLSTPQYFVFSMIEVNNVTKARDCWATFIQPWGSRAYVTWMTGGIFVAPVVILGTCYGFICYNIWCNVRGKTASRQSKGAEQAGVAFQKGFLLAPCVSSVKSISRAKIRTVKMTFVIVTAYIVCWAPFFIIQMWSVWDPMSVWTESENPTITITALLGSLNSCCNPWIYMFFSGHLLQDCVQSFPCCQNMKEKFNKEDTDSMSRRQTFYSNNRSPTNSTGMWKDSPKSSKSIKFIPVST

Below are worked cases with known answers.
CCCCCCCCOc1ccccc1C(=O)Nc1ccc(C(=O)OCC[N+](C)(CC)CC)cc1 [OTILONIUM BROMIDE] = 13 µM
NC(N)=Nc1nc(CSCCC(N)=NS(N)(=O)=O)cs1 = > 10 µM
C1COC(NC(C2CC2)C2CC2)=N1 = > 30 µM
COC(=O)C1=C(C)NC(C)=C(C(=O)OC(C)C)C1c1cccc2nonc12 (stereo not drawn) = > 30 µM
CCN1CCC[C@H]1CNC(=O)c1cc(S(N)(=O)=O)ccc1OC [LEVOSULPIRIDE] = > 30 µM
CCOC(=O)[C@H](CCc1ccccc1)N[C@@H](C)C(=O)N1CCC[C@H]1C(=O)O = > 10 µM

Ask: Report AC50 under test system UniProtKB P37288 for `CS(=O)(=O)c1ccc([C@@H](O)[C@@H](CO)NC(=O)C(Cl)Cl)cc1` .
Result: > 30 µM

Ask: Report value: AC50, system: UniProtKB P37288, compound: `COC(=O)N[C@H](C(=O)N[C@@H](Cc1ccccc1)[C@@H](O)CN(Cc1ccc(-c2ccccn2)cc1)NC(=O)[C@@H](NC(=O)OC)C(C)(C)C)C(C)(C)C`
Result: > 30 µM

Entry source: ChEMBL document CHEMBL5291721
